test: protein stability index of a GFP-peptide fusion (GPS, HEK-293T) (PSI 1-6); higher = more stable; details: treatment: MLN4924 1 uM, 8 h; c terminus: a fixed tail appended;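 note: 24-mer peptide tiles fused after GFP, lentivirally expressed, FACS-sorted into six equal bins by GFP/DsRed ratio, decoded by Illumina sequencing, PSI is the read-weighted mean bin number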
propertyMeasured: protein stability index
One number for each entry.

INSERT INTO results (sequencecontent, result) VALUES
  ('PQGLFRGGKSGELEQEEERLSKEW [CHGA]', 5.42),
  ('KCGSGARGGDGEVASAPLQPPVPS [TRADD]', 4.78),
  ('QRIHAAERLCMGVDCTEIFGGNPR [ZNF263]', 3.38);

Hi! Can you tell me protein stability index for each of these sequences?
1. AGNNEHCGNIKAPSLQAWNDAPCD [CD207]
2. ASGQGPMCNVKAPLGSPSPRPRRA [ADAMTS4]
3. NSLLEEETILHFFVQILLALHHVH [NEK8]

4.71
5.13
2.33

Hi! Can you tell me protein stability index for each of these sequences?
1. LRLCRLWPRNPPSRLLGAAAGQRS [DNAJC4]
2. LLLAYNSSARIPKCPWMEGGEMSP [INTS4]
3. TGEIMHALKMTWHVHCFTCAACKT [PDLIM7]
4. WFKTRRKEMTQKLEALHLEALCEE [DENND6A]
5. FVSIAQSEQESLLQQAQAQFRMAQ [SMG5]

1: 2.7; 2: 2.17; 3: 2.27; 4: 3.88; 5: 3.08

Hi! Can you tell me protein stability index for each of these sequences?
1. TVECYNPRTNEWTYVAKMSEPHYG [KLHL13]
2. EMEVMRRQLYAVNRRLRALEEQGA [FATE1]
3. MASQSQGIQQLLQAEKRAAEKVSE [ATP6V1G1]
4. CTWSIFQSIEYAGQQDQVKLHDFF [PPEF2]

[2.52, 3.68, 5.38, 2.37]

Hi! Can you tell me protein stability index for each of these sequences?
1. TVCGDLHGQLDDLIFIFYKNGLPS [PPEF2]
2. HSLVRSRHRIPEPEAAVLFRQMAT [TRIB3]
3. KDLVMYSKCQRLFRSPSMPCSVIR [CDC25B]
4. DCQAGLNFADEDEAQAFRALVQEK [WAS]
5. PEDRPSLDDIIRHDFFLQGFTPDR [PLK2]
6. IDLATWNFQFLPQVNGHPDPFDEI [PTPN9]
7. GFALDILFAIANGFSPSYEFFAVT [SLC22A15]
8. KKKEGGALRAQRASSNVFSNFEQT [MYL5]

[1.94, 3.31, 2.73, 5.08, 4.27, 2.54, 3.29, 4.47]

Hi! Can you tell me protein stability index for each of these sequences?
1. SPSSDRVSAIIWEGNECKKMDMSV [PHTF1]
2. RGDSVKVENPSTASHSLSPSEHVQ [ZNF649]
3. KQNARFLTSMRRLSSIKRDTNSIA [STX11]
4. GGEFQCGLEAASVYSDHTNTNNLT [RNF180]

1: 3.73; 2: 5.19; 3: 3.21; 4: 2.42

Hi! Can you tell me protein stability index for each of these sequences?
1. RWEPSGKAEPRLPDRVYIHPDSPA [TBX6]
2. QQQHVSCQVFPERLAQGNPQQGFF [ATP23]
3. VGGYGTRLRPLTLSTPKPLVDFCN [GMPPB]
4. LSTHNWTYWQCGQYLGVGPGAHGR [RSAD1]

1. 4.13
2. 3.28
3. 2.46
4. 1.99

Hi! Can you tell me protein stability index for each of these sequences?
1. APKGKGRKPAAGAQSAGTQQVAAV [BRD3]
2. PSWNGSLKQLLTETDVWFSKQRKD [GMCL1]
3. PIRSISLRSCYFSDPDCSMRPTLI [FBXO39]
4. ELVSVEDLLKFEKKFQSEKAAGSV [FIS1]
5. KVKRSLRQARKKGRHLELANQKLS [CCDC3]
6. QALRQMNEGAIDCVNYEGQSAYDV [DLC1]

5.04
3.29
2.07
4.07
4.39
4.39

Hi! Can you tell me protein stability index for each of these sequences?
1. SDSIAYDKGEKLLRCKLAAFYRLA [ADD1]
2. HTFRATFQEPLYPALRLWEGAISI [TRIM14]
3. PNLASDSDLSRRSSSTMSKSEYME [KCNA1]
4. RQDAKYLNMRSTYAKLAAVAVFFI [SEC22B]

1. 2.34
2. 2.69
3. 5.22
4. 2.15

----------
assay: protein stability index of a GFP-peptide fusion (GPS, HEK-293T) (PSI 1-6); higher = more stable; details: treatment: DMSO; c terminus: a fixed tail appended
propertyMeasured: protein stability index

Solved entries (count: 3):
INSERT INTO measurements (sequencecontent, result) VALUES
  ('SYAFGKFPTVVWTWWIMFLSTFSV [SOAT1]', 2.98),
  ('AKQRAKEAQERELRKREKAEEKER [LRRC59]', 5.45),
  ('TQQFKAEKLKEKLKMKEREEAWVK [PPP2R5C]', 3.26);

Hi! Can you tell me protein stability index for each of these sequences?
1. FLLKFLLVGDSDVGKGEILASLQD [RAB40B]
2. KKLKKDDKKKELQELNELFKPVVA [ZC3H15]
3. LALPPGAEHWTKEHCGAVCFVKDN [WAS]
4. TLVQDLANAFQQEAQTSGKERLLL [CHIT1]
5. ALEEADKMFLRTREPALDGGFQMH [EID1]

3.52
4.18
3.35
3.16
3.75

Hi! Can you tell me protein stability index for each of these sequences?
1. FGLAIEVEGEQQAWFGFAGTPGYL [CAMK2A]
2. WAANAGVTASPPTDLIWKNQNSWG [LMNB1]

1. 2.68
2. 2.46

Hi! Can you tell me protein stability index for each of these sequences?
1. KQNARFLTSMRRLSSIKRDTNSIA [STX11]
2. QWGAEPEGSCYQTFRQYCGAACTC [RNF208]

[3.12, 3]

Hi! Can you tell me protein stability index for each of these sequences?
1. NMNDNFLEGEEENELTLNEKNFFP [CHGB]
2. DRETQEGKPPTAHLDRTSVSSLSE [ELOA2]
3. LASLGASEEAVQKLATCYFFTVEF [TPH1]

1. 4.71
2. 5.37
3. 2.98

----------
assay: protein stability index of a GFP-peptide fusion (GPS, HEK-293T) (PSI 1-6); higher = more stable; conditions: treatment: DMSO; c terminus: a fixed tail appended
propertyMeasured: protein stability index
Numbers only.

Solved entries (count: 3):
INSERT INTO results (sequencecontent, result) VALUES
  ('ARSPSGPSGSLENGTKADGKDAKT [TRIM29]', 5.4),
  ('LVFLITAILVKVQLDALPFFVITM [SLC29A1]', 3.06),
  ('AQEEPWEKKESLGAAQEALSIQLQ [ZNF232]', 4.91);

Hi! Can you tell me protein stability index for each of these sequences?
1. QLSPSPTPASQSPKKPPAKDPLAD [SNAP91]
2. DMNGKSLHGKAIKVEQAKKPSFQS [RBMY1A1]
3. LLTTSGIQFKKHEEEGIETQYFAE [CNOT7]

1. 5.49
2. 3.16
3. 4.13

----------
test: protein stability index of a GFP-peptide fusion (GPS, HEK-293T) (PSI 1-6); higher = more stable; settings: treatment: DMSO; c terminus: a fixed tail appended
Decision: protein stability index compared against 4; not below it gives Condition met, below it gives Condition not met.

Examples with answers:
INSERT INTO assay_data (sequencecontent, classassignment) VALUES
  ('DDVLPWRRTAENKLDTKYPYVCHA [DCTD]', 'Condition not met'),
  ('IIDSSRSVNTHDYAKVKEFIVDIL [MATN2]', 'Condition not met'),
  ('LKTGNSSPGIGAVYLANQAKNQSD [RTP4]', 'Condition not met'),
  ('DARVKRKLRGPEPAATEAYGSGDT [TBX6]', 'Condition met'),
  ('GSHPQQTQKLEEIKENAQDTMRQI [TOR1AIP2]', 'Condition met');

Threshold query (protein stability index >= 4) on PQEKLWQQLRRGRYVEFNLLYDRG [CPOX]
Condition not met

Threshold query (protein stability index >= 4) on SPKGTLPPAALESSDSANTTIEDE [CAMK2B]
Condition met

Threshold query (protein stability index >= 4) on PVELYTAFQHTPTSITLTASRVSK [KMT2E]
Condition not met

Threshold query (protein stability index >= 4) on ISLEERRAQLPKYQRNLPRPGQAP [ZNF207]
Condition not met

Threshold query (protein stability index >= 4) on EAAYLKILESSQTLLSVLKREAGN [SSNA1]
Condition not met

Where these numbers come from: the supplement of paper PMC10567573
